Exercise: state measured IC50 for each of the molecules provided.
Tested on: NCI-H1975
protocol details: cells
Assay type: functional, cell-based
condition context: Homo sapiens
Give bare numbers, in µM.

Solved entries:
>  <smiles text>
C=CC(=O)Nc1cc(Nc2cc(-n3c(SC)nnc3-c3ccc(F)cc3)ccn2)c(OC)cc1N1CCC(N2CCOCC2)CC1

>  <system name>
NCI-H1975

>  <readout number>
16.7

$$$$
>  <smiles text>
C=CC(=O)Nc1cc(Nc2cc(-n3c(SC)nnc3-c3ccc(F)cc3)ccn2)c(OC)cc1N1CCN(C2CCN(C)CC2)CC1

>  <system name>
NCI-H1975

>  <readout number>
14.9

$$$$

Continue with the next molecule.
Answer with the recorded IC50 of C=CC(=O)Nc1cc(Nc2cc(-n3c(SC)nnc3-c3ccc(F)cc3)ccn2)c(OC)cc1N(C)CCN(C)C only.
5.4

* * *

system name: Epidermal growth factor receptor (Homo sapiens, UniProt P00533, L858R/T790M)
Sequence (P00533 25-1210 T790M/L858R limits assumed): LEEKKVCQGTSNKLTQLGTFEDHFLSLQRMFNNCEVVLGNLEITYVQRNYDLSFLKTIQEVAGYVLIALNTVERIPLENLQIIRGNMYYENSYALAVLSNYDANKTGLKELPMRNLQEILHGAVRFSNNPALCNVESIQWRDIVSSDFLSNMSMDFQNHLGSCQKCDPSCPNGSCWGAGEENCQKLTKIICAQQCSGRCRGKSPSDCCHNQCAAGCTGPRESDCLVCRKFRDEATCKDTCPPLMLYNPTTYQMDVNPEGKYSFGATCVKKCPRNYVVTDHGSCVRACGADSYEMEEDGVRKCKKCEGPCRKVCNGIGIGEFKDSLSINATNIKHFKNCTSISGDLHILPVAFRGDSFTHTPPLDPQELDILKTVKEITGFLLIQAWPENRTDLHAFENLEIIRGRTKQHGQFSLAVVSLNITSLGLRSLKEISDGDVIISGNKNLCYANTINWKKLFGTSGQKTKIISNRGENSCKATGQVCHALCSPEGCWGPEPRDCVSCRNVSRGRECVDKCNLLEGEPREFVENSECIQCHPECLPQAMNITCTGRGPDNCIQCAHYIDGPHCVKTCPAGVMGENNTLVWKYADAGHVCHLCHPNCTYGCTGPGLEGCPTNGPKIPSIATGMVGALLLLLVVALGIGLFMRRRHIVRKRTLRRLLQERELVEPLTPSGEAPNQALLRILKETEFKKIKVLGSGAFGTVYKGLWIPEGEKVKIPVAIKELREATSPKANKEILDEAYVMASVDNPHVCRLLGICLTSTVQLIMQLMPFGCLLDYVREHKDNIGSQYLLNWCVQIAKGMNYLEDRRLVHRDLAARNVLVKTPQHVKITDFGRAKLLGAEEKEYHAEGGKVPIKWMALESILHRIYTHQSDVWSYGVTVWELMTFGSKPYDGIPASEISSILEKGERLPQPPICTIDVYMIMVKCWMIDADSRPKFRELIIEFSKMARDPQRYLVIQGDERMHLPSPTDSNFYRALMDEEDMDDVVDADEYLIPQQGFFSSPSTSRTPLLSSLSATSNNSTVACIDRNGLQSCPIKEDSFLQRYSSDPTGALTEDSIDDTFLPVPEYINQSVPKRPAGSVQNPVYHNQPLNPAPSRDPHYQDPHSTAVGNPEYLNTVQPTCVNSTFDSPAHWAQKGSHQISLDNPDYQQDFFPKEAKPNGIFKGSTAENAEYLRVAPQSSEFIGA
protocol details: biochemical
measured endpoint: IC50 (nM)
Give bare numbers, in nM.

Solved entries:
>  <smiles text>
C=CC(=O)Nc1cc(Nc2cc(-n3c(SC)nnc3-c3ccc(F)cc3)ccn2)c(OC)cc1N(C)CCN(C)C

>  <system name>
Epidermal growth factor receptor (Homo sapiens, UniProt P00533, L858R/T790M)

>  <measurement unit>
nM

>  <IC50>
43.1

$$$$
>  <smiles text>
C=CC(=O)Nc1cc(Nc2cc(-n3c(SC)nnc3-c3ccc(F)cc3)ccn2)c(OC)cc1N1CCC(N2CCOCC2)CC1

>  <system name>
Epidermal growth factor receptor (Homo sapiens, UniProt P00533, L858R/T790M)

>  <measurement unit>
nM

>  <IC50>
112

$$$$
>  <smiles text>
C=CC(=O)Nc1cc(Nc2cc(-n3c(SC)nnc3-c3ccc(F)cc3)ccn2)c(OC)cc1N1CCCN(C)CC1

>  <system name>
Epidermal growth factor receptor (Homo sapiens, UniProt P00533, L858R/T790M)

>  <measurement unit>
nM

>  <IC50>
156

$$$$
>  <smiles text>
C=CC(=O)Nc1cccc(Nc2cc(-n3c(SC)nnc3-c3ccc(F)cc3)ccn2)c1

>  <system name>
Epidermal growth factor receptor (Homo sapiens, UniProt P00533, L858R/T790M)

>  <measurement unit>
nM

>  <IC50>
234

$$$$
>  <smiles text>
C=CC(=O)Nc1cc(Nc2nccc(-n3cc(CN(C)C)c(-c4ccccc4)n3)n2)c(OC)cc1N1CCOCC1

>  <system name>
Epidermal growth factor receptor (Homo sapiens, UniProt P00533, L858R/T790M)

>  <measurement unit>
nM

>  <IC50>
2.7

$$$$
>  <smiles text>
C=CC(=O)Nc1cc(Nc2cc(-n3c(SC)nnc3-c3ccc(F)cc3)ccn2)ccc1N(C)CCN(C)C

>  <system name>
Epidermal growth factor receptor (Homo sapiens, UniProt P00533, L858R/T790M)

>  <measurement unit>
nM

>  <IC50>
213

$$$$
>  <smiles text>
C=CC(=O)Nc1ccc(OC)c(Nc2cc(-n3c(SC)nnc3-c3ccc(F)cc3)ccn2)c1

>  <system name>
Epidermal growth factor receptor (Homo sapiens, UniProt P00533, L858R/T790M)

>  <measurement unit>
nM

>  <IC50>
147

$$$$

Answer with the recorded IC50 of C=CC(=O)Nc1cccc(Nc2cc(-n3c(CCCO)nnc3-c3ccc(F)cc3)ccn2)c1 only.
143

Cited source: ChEMBL document CHEMBL4706488
